The reader will find reported koff values listed item by item below.
Target: T1, human Trop-2-His protein (human, UniProt P09758 27-274)
T1 construct: extracellular domain; Assay paragraphs say only 'Trop-2-His'; also called hTrop-2; Kactus Cat #TRP-HM121; not shown: His tag
T1 sequence (looked up): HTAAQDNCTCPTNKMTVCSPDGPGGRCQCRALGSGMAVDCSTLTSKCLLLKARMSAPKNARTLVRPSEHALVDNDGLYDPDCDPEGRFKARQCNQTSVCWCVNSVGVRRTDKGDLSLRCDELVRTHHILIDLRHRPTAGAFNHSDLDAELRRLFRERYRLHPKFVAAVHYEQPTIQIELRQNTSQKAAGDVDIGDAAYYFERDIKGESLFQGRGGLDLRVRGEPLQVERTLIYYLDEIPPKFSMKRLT
Assay: BLI (Gator Prime), LEM supernatant Ab on HFC probe
Provide the reading as a plain figure in s⁻¹.

| binder | number |
| --- | --- |
| 1D10 (antibody, V domains shown, Rabbit-derived clone; LEM construct: VH + rabbit IgG CH1 + human IgG1 CH2-CH3) VH: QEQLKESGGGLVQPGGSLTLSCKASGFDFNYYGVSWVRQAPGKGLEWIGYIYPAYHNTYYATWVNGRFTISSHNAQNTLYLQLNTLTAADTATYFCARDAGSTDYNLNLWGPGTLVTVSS VL: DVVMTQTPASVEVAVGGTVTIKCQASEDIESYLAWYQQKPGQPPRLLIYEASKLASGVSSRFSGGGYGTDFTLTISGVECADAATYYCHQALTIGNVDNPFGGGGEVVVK | 0.00027 |
| 70E2 (antibody, V domains shown, Rabbit-derived clone; LEM construct: VH + rabbit IgG CH1 + human IgG1 CH2-CH3) VH: QSLEESGGGLVKPGGTLTLTCTVSGFDFSNYAMTWVRQAPGKGLEYIGFIGIRGNIYYANWAKGRFTISKTSSTTVTLQMTSLTVADTATYFCARGGLWTGNSYFDLWGPGTLVTVSS VL: YDMTQTPASVEVPVGGTVTINCQASENINRYLAWYQQKPGQPPKPLIYRAATLASGVPSRFKGSGSGTEYTLSISDLECADAATYYCQQGYGYSTVGNAFGGGTEVVVK | 0.00038 |
| 10F12 (antibody, V domains shown, Rabbit-derived clone; LEM construct: VH + rabbit IgG CH1 + human IgG1 CH2-CH3) VH: QSLEESGGDLVQPGASLTLTCRASGFDLNNYSMLWVRQAPGKGLEWIGCIYISGGTTYFASWATGRFAISKTSSTTVTLQMTSLTAADTATYFCARDDGSTSYYLNLWGPGTLVTVSS VL: YDMTQTPASVSAAVGGTVTIKCQASEDIYSLLAWYQQKPGQPPKLLIFDASDLASGVPSRFKGSGSGTEYTLTISDLECDDAATYYCQQAYTIGNIDNAFGGGTEVVVK | 6.8e-05 |

Ask | Give its koff value. Item: 74F11/15F5 (antibody, human IgG1, V domains shown, LEM construct: VH + rabbit IgG CH1 + human IgG1 CH2-CH3) VH: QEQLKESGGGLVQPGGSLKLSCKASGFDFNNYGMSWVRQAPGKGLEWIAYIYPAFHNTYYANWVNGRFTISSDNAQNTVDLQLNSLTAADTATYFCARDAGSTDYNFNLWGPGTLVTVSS VL: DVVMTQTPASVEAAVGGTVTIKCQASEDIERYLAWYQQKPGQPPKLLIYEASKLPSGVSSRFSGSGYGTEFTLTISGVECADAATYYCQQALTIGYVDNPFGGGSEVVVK
Reply | 0.00017

Ask | Request the reported koff associated with 62E3 (antibody, V domains shown, Rabbit-derived clone; LEM construct: VH + rabbit IgG CH1 + human IgG1 CH2-CH3) VH: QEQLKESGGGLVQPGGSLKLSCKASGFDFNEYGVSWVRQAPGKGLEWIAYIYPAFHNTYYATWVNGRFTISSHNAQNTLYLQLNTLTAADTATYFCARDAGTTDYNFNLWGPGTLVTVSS VL: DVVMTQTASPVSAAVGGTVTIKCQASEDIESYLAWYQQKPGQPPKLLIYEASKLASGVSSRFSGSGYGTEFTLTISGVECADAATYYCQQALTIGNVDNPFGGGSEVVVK
Reply | 0.00038
